Experiment: Maximum plasma concentration after peroral administration of 10 mg/kg in rat
Type: ADME, organism-based
Set-up: dose 10 mg/kg, route oral
Conditions: po
REPORTED METRIC: Cmax (ng/mL)

C[C@H](O)[C@@H](CCc1cccc2oc(-c3ccc(Cl)cc3)nc12)n1cnc(C(N)=O)c1: 14700
C[C@H](O)[C@@H](CCc1cccc(Cl)c1Cl)n1cnc(C(N)=O)c1: 1630
C[C@H](O)[C@@H](CCc1cccc2ccccc12)n1cnc(C(N)=O)c1: 1250
Cn1cc(CC[C@H](CO)n2cnc(C(N)=O)c2)c2cc(OCCCc3ccc(Cl)cc3)ccc21: 210
C[C@H](O)[C@@H](CCc1cccc2nc(-c3ccc(Cl)cc3)oc12)n1cnc(C(N)=O)c1: 5580
